test system: L1210 leukemia ip in BDF1 mice, survival T/C; experiment: NCI In Vivo Anticancer Drug Screen. Data for tumor model L1210 Leukemia (intraperitoneal) in B6D2F1 (BDF1) mice; settings: endpoint: mean survival time; dose: 150.0 mg/kg/injection; schedule: Q01DX001 (ip); vehicle: carboxymethylcellulose (CMC); higher = longer survival
Inconclusive results and toxic doses are left out.
Assign T/C to each entry below.

Some compounds with recorded T/C:
{"columns": ["compound", "measurementType", "value"],
 "data": [
  ["O=C(O)c1cccc(F)c1C(=O)c1ccc2ccccc2c1", "T/C", "95 % of control"],
  ["COC1=C(Cl)C(OC)(OC)C(Cl)=C1Cl", "T/C", "102 % of control"],
  ["CCN(CC)C(=O)C(N)Cc1ccc(OC)c(N(CCCl)CCCl)c1 (stereo not given)", "T/C", "117 % of control"],
  ["Cc1ccc2cc3c4ccccc4ccc3[n+](C)c2c1", "T/C", "100 % of control"]
]}

Kindly review the next compound as well.
Which T/C value belongs to CC(Cl)CO (stereo not given) ?
97 % of control
